Would you mind telling me the reported Relative IR-A affinity (@ 0% HSA) (%) of each entry?
target: human insulin receptor (Homo sapiens)
Sequence (P06213 28-746 isoform P06213-2 limits assumed): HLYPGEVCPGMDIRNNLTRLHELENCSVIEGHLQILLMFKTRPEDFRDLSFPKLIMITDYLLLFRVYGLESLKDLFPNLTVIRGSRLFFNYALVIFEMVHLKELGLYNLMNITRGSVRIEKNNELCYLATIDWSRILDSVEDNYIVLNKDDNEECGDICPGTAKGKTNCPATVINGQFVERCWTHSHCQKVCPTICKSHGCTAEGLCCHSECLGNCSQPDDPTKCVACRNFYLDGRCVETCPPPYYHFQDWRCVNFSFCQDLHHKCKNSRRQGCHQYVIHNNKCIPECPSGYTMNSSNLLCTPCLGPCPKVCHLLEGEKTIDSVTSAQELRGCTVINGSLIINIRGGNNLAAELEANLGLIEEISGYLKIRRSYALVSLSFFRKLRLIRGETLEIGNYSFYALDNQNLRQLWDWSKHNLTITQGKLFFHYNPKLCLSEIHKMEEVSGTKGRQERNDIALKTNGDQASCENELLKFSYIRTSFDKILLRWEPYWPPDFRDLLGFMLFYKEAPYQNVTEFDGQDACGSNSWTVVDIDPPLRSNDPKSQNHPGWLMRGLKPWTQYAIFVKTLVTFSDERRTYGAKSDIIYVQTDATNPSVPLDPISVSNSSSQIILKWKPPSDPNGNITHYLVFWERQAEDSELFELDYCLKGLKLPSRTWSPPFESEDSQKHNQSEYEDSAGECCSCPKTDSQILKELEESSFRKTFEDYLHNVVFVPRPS
Sequence (P06213 763-1382 partner limits assumed): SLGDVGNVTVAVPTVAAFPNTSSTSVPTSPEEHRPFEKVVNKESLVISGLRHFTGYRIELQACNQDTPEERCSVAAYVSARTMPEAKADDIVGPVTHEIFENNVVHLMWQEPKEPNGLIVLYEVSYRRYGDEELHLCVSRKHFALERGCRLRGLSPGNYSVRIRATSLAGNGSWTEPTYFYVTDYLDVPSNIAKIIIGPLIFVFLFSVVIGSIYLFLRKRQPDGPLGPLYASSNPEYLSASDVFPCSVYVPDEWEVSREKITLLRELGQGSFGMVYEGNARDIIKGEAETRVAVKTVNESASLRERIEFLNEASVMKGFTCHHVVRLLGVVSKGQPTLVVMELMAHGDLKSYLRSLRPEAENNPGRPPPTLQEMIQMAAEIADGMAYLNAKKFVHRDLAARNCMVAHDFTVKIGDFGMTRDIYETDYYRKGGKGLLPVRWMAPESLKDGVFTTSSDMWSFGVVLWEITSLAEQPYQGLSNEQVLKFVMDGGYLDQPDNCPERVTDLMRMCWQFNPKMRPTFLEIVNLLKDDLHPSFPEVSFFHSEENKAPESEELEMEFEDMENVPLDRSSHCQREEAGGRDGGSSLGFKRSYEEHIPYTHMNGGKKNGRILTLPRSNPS
assayMethodText: Insulin receptor affinity, SPA antibody capture assay (0% HSA)
Assay type: binding
appliedConditions: relative to the affinity of human insulin
Starred links: 1 amine or outer side, 2 acyl side, 3 side chain; linkers in the order of their positions; H or OH if unused. Positions of bridges follow the written chain, without caps; N, C: chain ends. Groups on a side chain read outwards from the residue. Chains are numbered I, II in the order given. No end group written: not given here. *: point of attachment. Phe(Nα-CONH2) = NC(=O)N[C@@H](Cc1ccccc1)C(=O)*; C20 diacid = O=C(O)CCCCCCCCCCCCCCCCCCC(=O)*; C18 diacid = O=C(O)CCCCCCCCCCCCCCCCC(=O)*; NMe2Phe = CN(C)[C@@H](Cc1ccccc1)C(=O)*; γGlu = O=C(O)[C@H](CCC(=O)[*:2])N[*:1]; Hydantoyl = NC(=O)NCC(=O)*; AEEA = NCCOCCOCC(=O)O; Me2Gly = CN(C)CC(=O)*

Problem: Given I: NMe2Phe-VCQHLCGSHLVEALHLVCGERGFHYTPK([AEEA-AEEA-γGlu-C20 diacid]) / II: Me2Gly-IVEQCCTSCCSLEQLENYCN (disulfide I:2-II:9, I:6-II:6, I:18-II:19, II:5-II:10) [Example 28] , state its recorded Relative IR-A affinity (@ 0% HSA) (%).
Result: 0.1%

Problem: Given I: {Phe(Nα-CONH2)}-VCQHLCGSHLVEALYLVCGERGFHYPK([AEEA-AEEA-γGlu-C20 diacid]) / II: Hydantoyl-IVEQCCTSCCSLEQLENYCN (disulfide I:2-II:9, I:6-II:6, I:18-II:19, II:5-II:10) [Example 46] , state its recorded Relative IR-A affinity (@ 0% HSA) (%).
Result: 0.1%

Problem: Given I: {Phe(Nα-CONH2)}-VCQHLCGSHLVEALYLVCGERGFFYPK([AEEA-AEEA-γGlu-C18 diacid]) / II: Hydantoyl-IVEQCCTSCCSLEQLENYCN (disulfide I:2-II:9, I:6-II:6, I:18-II:19, II:5-II:10) [Example 33] , state its recorded Relative IR-A affinity (@ 0% HSA) (%).
Result: 0.6%
